Can you tell me a(O1, O2, N2) for the items I'm about to list?
- TESTED_TARGET: MASP-2 CCP2-SP (Homo sapiens (Human))
- Sequence (O00187 445-686): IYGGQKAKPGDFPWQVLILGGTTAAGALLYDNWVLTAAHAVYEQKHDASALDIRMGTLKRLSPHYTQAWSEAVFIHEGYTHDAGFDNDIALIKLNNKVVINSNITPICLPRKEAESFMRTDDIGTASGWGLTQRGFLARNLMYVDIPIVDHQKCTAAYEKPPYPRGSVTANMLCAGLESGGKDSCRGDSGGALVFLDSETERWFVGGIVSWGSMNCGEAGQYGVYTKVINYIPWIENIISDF
- Sequence (O00187 364-432 partner): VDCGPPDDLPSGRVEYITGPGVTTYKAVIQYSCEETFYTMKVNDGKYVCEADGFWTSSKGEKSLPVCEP
- ASSAY_OVERVIEW: MASP-2 co-crystallization, X-ray crystallography and structure analysis (H-bonds, van der Waals contacts)
- MEASUREMENT_PARAMETERS: Table A6-2 pharmacophore angle
Structures can show the parent of a compound that is named as a salt.
// no unit, no text: just the number

Problem: Complete the entry with a(O1, O2, N2) for C[C@H](NC(=O)[C@H]1C[C@@H](c2ccccc2)CCN1)C(=O)NCc1cc(Cl)ccc1O.Cl [1078_16]
Solution: 144.54

Problem: Complete the entry with a(O1, O2, N2) for C[C@H](NC(=O)C1C[C@@H](c2ccccc2)CCN1)C(=O)NCc1ccc(C(=N)N)cc1 (stereo in doubt)
Solution: 139.49

Problem: Complete the entry with a(O1, O2, N2) for C[C@H](NC(=O)[C@H]1C[C@@H](c2ccccc2)CCN1)C(=O)NCc1cc(Cl)ccc1O.Cl [1078_5]
Solution: 141.15

Problem: Complete the entry with a(O1, O2, N2) for C[C@H](NC(=O)[C@H]1C[C@@H](c2ccccc2)CN1)C(=O)NCc1ccc2c(N)nccc2c1.Cl.Cl [1089_A]
Solution: 141.72

Problem: Complete the entry with a(O1, O2, N2) for C[C@H](NC(=O)[C@H]1C[C@@H](c2ccccc2)CCN1)C(=O)NCc1cc(Cl)ccc1O.Cl [1078_7]
Solution: 140.50

Problem: Complete the entry with a(O1, O2, N2) for C[C@H](NC(=O)[C@H](N)CCc1ccccc1)C(=O)NCc1ccc(N)nc1.Cl.Cl [1007_1]
Solution: 138.95

Problem: Complete the entry with a(O1, O2, N2) for CC(NC(=O)C(CCc1ccccc1)NCc1ccc(C(=O)N2CCOCC2)cc1)C(=O)NCc1ccc(C(=N)N)cc1.Cl.Cl (stereo not drawn)
Solution: 132.96

Problem: Complete the entry with a(O1, O2, N2) for "Cc1cc(Cl)cc(CNC(=O)[C@H](C)NC(=O)[C@H]2C[C@H](Cc3ccccc3)CN2)c1O"
Solution: 142.81

Problem: Complete the entry with a(O1, O2, N2) for Cc1nc(N)ccc1CNC(=O)[C@H](C)NC(=O)[C@H]1C[C@H](Cc2cccc(Cl)c2)CN1.Cl.Cl [1328_4]
Solution: 142.82

Problem: Complete the entry with a(O1, O2, N2) for Cc1nc(N)ccc1CNC(=O)[C@H](C)NC(=O)[C@H]1C[C@H](Cc2cc(Cl)cc(Cl)c2)CN1 [compound 1435, Dihydrochloride]
Solution: 139.75

Problem: Complete the entry with a(O1, O2, N2) for "Cc1nc(N)ccc1CNC(=O)[C@H](C)NC(=O)[C@H]1C[C@H](Cc2ccc(-c3ccccc3)cc2)CN1"
Solution: 141.59

Problem: Complete the entry with a(O1, O2, N2) for Cc1nc(N)ccc1CNC(=O)[C@H](C)NC(=O)[C@H]1C[C@@H](c2cccc3ccccc23)CCN1.Cl.Cl [1297_5]
Solution: 147.10

Problem: Complete the entry with a(O1, O2, N2) for C[C@H](NC(=O)[C@H](N)CCCc1ccccc1)C(=O)NCc1ccc(C(=N)N)cc1.Cl.Cl [1042_2]
Solution: 148.96

Problem: Complete the entry with a(O1, O2, N2) for Cc1cccc([C@H]2CN[C@@H](C(=O)N[C@@H](C)C(=O)NCc3ccc(N)nc3C)C2)c1 [compound 1257, Dihydrochloride]
Solution: 141.45

Problem: Complete the entry with a(O1, O2, N2) for CC(=O)Nc1ccc(CCN[C@H](CCc2ccccc2)C(=O)N[C@@H](C)C(=O)NCc2ccc(N)nc2C)cc1 [compound 1368, Dihydrochloride]
Solution: 74.03
